- System: PANC-1 (prancreatic carcinoma) cell line
- assay: CellTiter-Glo luminescent cell viability assay, PANC-1
- Type: cell-based
- setupConditions: Homo sapiens; PANC-1, 10 μM, 72 h, % of signal of diluent-treated cultures
recordedEndpoint: viability at 10 µM (%)
Give your result in % as a bare value.

Entry under review: Cc1nnc(Nc2nc3ccccc3c(N3CCC(NC(C)(C)C)CC3)c2C#N)o1 [Compound 3272CN] . Reported viability at 10 µM?
65.3

Entry under review: CC(C)(C)NC1CCN(c2c(C#N)c(Nc3ccccn3)nc3ccccc23)CC1 [Compound 3278CN] . Reported viability at 10 µM?
84.2

Entry under review: Cn1cc(Nc2nc3ccccc3c(N3CCC(NC(C)(C)C)CC3)c2C#N)cn1 [Compound 3268CN] . Reported viability at 10 µM?
43.6

Entry under review: N#Cc1c(NCc2ccc(Cl)cc2)nc2ccccc2c1N1CCCC(N)C1 (centres unmarked) [Compound 3156CN] . Reported viability at 10 µM?
0.9

Entry under review: CC(C)(C)NC1CCN(c2c(C#N)c(NCc3ccc(C(F)(F)F)cc3)nc3ccccc23)CC1 [Compound 3292CN] . Reported viability at 10 µM?
25

Entry under review: N#Cc1c(NCc2ccc(Cl)cc2)nc2ccccc2c1N1CCC(N2CCCC2)CC1 [Compound 200CN] . Reported viability at 10 µM?
60.8

Entry under review: CC(C)(C)NC1CCN(c2c(F)c(NCc3ccc(F)cc3)nc3ccccc23)CC1 [Compound 240F] . Reported viability at 10 µM?
59.5

Entry under review: Cc1cccc2c(N3CCC(NC(C)(C)C)CC3)c(C#N)c(NCc3ccc(Cl)cc3)nc12 [Compound 414CN] . Reported viability at 10 µM?
0.8
